SYSTEM NAME: T1, CBD-toxin A-Fc (Clostridium difficile, UniProt P16154 1848-2710)
T1 construct: also called CBD-A; C-term Toxin A
TEST NAME: SPR Biacore, CBD-A-Fc captured, 500 nM mAb flowed
PARAMETER: binding (RU)
Answer as a quantity: numeral, then unit.

Ask: Fill in the blank: the reported binding (RU) of H1H3339P (antibody, V domains shown) VH: EVQLVESGGGLVQPGGSLRLSCAVSGFTFSIYAMSWVRQAPGKGLEWVSAISGSGDKTYYADSVKGRFTISRDNSKNTLYLQMNSLRAEDTAVFYCARGWELLNYWGQGTLVTVSS VL: DIQMTQSPSSLSASVGDRVTITCRASLDISNFLAWFQQKPGTAPKSLIYSASSLRTGVPSKFSGSGSGTDFTLTISSLQPEDFATYYCQQYSSYPPTFGPGTKVDIKR is ____.
Reply: 2 RU

Ask: Fill in the blank: the reported binding (RU) of H1H3347P (antibody, V domains shown) VH: EVQLVESGGGLVQPGGSLRLSCVASGFTFTSYAMSWVRQAPGRGLQWVSAIGGSGDSIYYADSVKGRFTISRDNSKNTLYLQMDSLRAEDTAVYYCARGWELLNYWGQGTLVTVSS VL: DIQMTQSPSSLSASVGDRVTITCRASQDIGNFLAWFQQKPGKAPKSLIYAASSLKSGVPSKISGSGSGTDFTLTINSLQPEDFATYYCQQYNIYPPTFGPGTKVDIKR is ____.
Reply: -13 RU

Further cases:
Ask: Fill in the blank: the reported binding (RU) of H1H3335P (antibody, V domains shown) VH: EVQLVESGGGLVRPGGSLRLSCAASGFTFRIYAMSWVRQAPGKGLEWVSGISGSGDNTYYTDSVKGRFIISRDNSKSTLYLQMNSLRAEDTAVYYCARGWELLNYWGQGTLVTVSS VL: DIQMTQSPSSLSAFVGDRVTITCRASQDISNHLAWFQQKPGKVPKSLIYAASSLQSGVPSKFSGSGSGTDFTLTISSLQPEDFATYYCQQYGLYPPTFGPGTKVDIKR is ____.
Reply: 5 RU

Ask: Fill in the blank: the reported binding (RU) of H1H3328P (antibody, V domains shown) VH: EVQLVESGGGLVQPGGSLTLSCAASRFTFSNYDMHWVRQATGKGLEWVSAIGTVGDTYYAGSVKGRFTISRDDAKNSLYLQMNSLRAGDTAVYYCARDRGGAGTYSFYYGMDVWGQGTTVTVSS VL: DIQMTQSPSSLSASVGDRVTITCRASQDISNYLAWYQQKPGKVPKLLIYAASTLQSGVPSRFSGSGSGTDFTLTVSSLQPEDVATYYCQKYTSAPFTFGPGTKVDIKR is ____.
Reply: 227 RU

Ask: Fill in the blank: the reported binding (RU) of H1H3337P (antibody, V domains shown) VH: EVQLVESGGGLVQPGGSLRLSCAASGFTFSIYAMSWVRQAPGKGLEWVSGISGSGGRTYYADSVKGRFTISRDNSKNTLYLQMNSLRVEDTAVYYCARGWELLNFWGQGTLVTVSS VL: DIQMTQSPSSLSASVGDRVTITCRASQGISNNLAWFQQKPGKAPKSLIYAASSLKSGVPSKFSGSGSGTDFTLTINSLQPEDFATYYCHQYNSYPPTFGPGTKVDIKR is ____.
Reply: 8 RU
